Test: Oral bioavailability in rhesus monkey at 1 mg/kg
Assay type: ADME, organism-based, Macaca mulatta
Conditions: in vivo
reportedMetric: bioavailability (%)
Numbers only; they are read as %.

Would you kindly share the measured bioavailability for `N#Cc1cc(F)cc(N2CCCc3oc(-c4ccccn4)nc3C2)c1` ? 10

----------
Assay: AUC (0 to t) in Sprague-Dawley rat at 10 mg/kg, po
Type: ADME, organism-based
Set-up: dose 10 mg/kg, route oral
Details: plasma
reportedMetric: AUC(0-t) (µM·h)
Numbers only; they are read as µM·h.

Would you kindly share the measured AUC(0-t) for `N#Cc1cc(F)cc(N2CCCc3oc(-c4ccccn4)nc3C2)c1` ? 3.36

Sourced from ChEMBL document CHEMBL1255567
